# measurement-target: Acyl-CoA (8-3)-desaturase (Rattus norvegicus)
# Sequence (Q920R3 whole entry): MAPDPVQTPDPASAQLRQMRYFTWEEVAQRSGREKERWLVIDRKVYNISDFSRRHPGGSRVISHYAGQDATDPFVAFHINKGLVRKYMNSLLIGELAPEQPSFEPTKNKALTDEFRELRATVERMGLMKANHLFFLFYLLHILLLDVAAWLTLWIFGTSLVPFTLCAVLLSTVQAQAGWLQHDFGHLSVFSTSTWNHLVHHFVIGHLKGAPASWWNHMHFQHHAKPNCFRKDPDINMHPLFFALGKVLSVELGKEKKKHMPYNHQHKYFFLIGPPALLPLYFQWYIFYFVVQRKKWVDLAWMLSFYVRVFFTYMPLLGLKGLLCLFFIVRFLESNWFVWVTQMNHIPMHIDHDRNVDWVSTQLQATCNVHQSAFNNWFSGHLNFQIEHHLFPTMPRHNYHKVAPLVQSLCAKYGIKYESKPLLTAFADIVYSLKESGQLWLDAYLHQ
# protocol-notes: Displacement of [3H]T-3364366 from D5D in rat liver microsomal membrane preincubated for 15 mins followed by radioligand addition measured after 150 mins by TopCount microscintillation counting assay
Readings of IC50 for the listed compounds
measure: IC50 (nM)

compound="O=C1OC(c2ccccc2)CN1Cc1cc(O)c(Cl)cc1Cl (racemic)" recorded_result=12
compound="C[C@H]1[C@H](c2ccc(F)cc2)OC(=O)N1c1cccc(C#N)c1 (racemic)" recorded_result=13
compound="COc1cccc(N2CC(c3ccc(F)cc3)OC2=O)c1 (racemic)" recorded_result=8.5
